Where do these numbers come from? They come from PubChem BioAssay AID651894.

System: T. b. rhodesiense STIB900 bloodstream, Alamar blue, 72 h
procedure text: African trypanosome bloodstream form growth inhibition – STIB900 strain, plate reader, dry powder, dose response (AID 651894)
assay metric: pIC50
In plain terms, pIC50 is the concentration in mol/L turned into minus its base-10 logarithm.

Q: Recorded pIC50 of `C[C@@H]1CN([C@@H](C)CO)C(=O)c2cccc(NC(=O)c3ccncc3)c2O[C@H]1CN(C)Cc1ccc(Oc2ccccc2)cc1` , please.
A: 6.77
